test.details: in vitro
measurement.context: male, C57BL/6J, mouse, blood, Ex-vivo stability t 1/2
measured.property: half-life (min)

[[record]]
smi = "NC(=O)CCN(NC(=O)[C@H](CO)NC(=O)[C@H](CO)NC(=O)[C@@H](N)Cc1ccccc1)C(N)=O"
measured_property = "half-life"
reported_result = 2.9

[[record]]
smi = "NC(=O)N(CCC(=O)O)NC(=O)[C@H](CO)NC(=O)[C@H](CO)NC(=O)[C@@H](N)Cc1ccccc1"
measured_property = "half-life"
reported_result = 2.6


###

# reported half-life; entries follow
test.details: in vitro
measurement.context: male, C57BL/6J, mouse, blood
Numbered stars: 1 amine (or outer) side, 2 acyl side, 3 side chain; on linkers, the order of the positions; unused ones are H or OH. Square brackets hold non-standard residues; d marks the D form. Peptide text beside a SMILES is read from it. azaPhe = O=C(N(Cc1ccccc1)N[*:1])[*:2]; azaPro = O=C(N1CCCN1[*:1])[*:2]
Dear colleague, please return just the value in min, with no unit written.

[[record]]
compound = "N=C(N)NCCC[C@H](NC(=O)N(Cc1ccccc1)NC(=O)[C@@H]1CCCN1C(=O)[C@H](CO)NC(=O)[C@H](Cc1ccccc1)NC(=O)CNC(=O)[C@@H]1CCCN1C(=O)N1CCCN1C(=O)[C@@H](N)CCCNC(=N)N)C(=O)O [Compound 70, RazaP^2PGFSPazaF^8R] (H-R[azaPro]PGFSP[azaPhe]R-OH; N-terminus and C-terminus assumed)"
unit = "min"
reported_result = 29.2

[[record]]
compound = "N=C(N)NCCC[C@H](NC(=O)[C@H](Cc1ccccc1)NC(=O)N1CCCN1C(=O)[C@H](CO)NC(=O)[C@H](Cc1ccccc1)NC(=O)CNC(=O)[C@@H]1CCCN1C(=O)[C@@H]1CCCN1C(=O)[C@@H](N)CCCNC(=N)N)C(=O)O [Compound 67, RPPGFSazaP^7FR] (H-RPPGFS[azaPro]FR-OH)"
unit = "min"
reported_result = 2.38

[[record]]
compound = "NC(=O)CC[C@H](NC(=O)[C@H](CO)NC(=O)[C@H](CO)NC(=O)N(N)Cc1ccccc1)C(=O)O"
unit = "min"
reported_result = 24.4

[[record]]
compound = "NC(N)=NCCC[C@H](NC(=O)[C@H](Cc1ccccc1)NC(=O)[C@@H]1CCCN1C(=O)[C@H](CO)NC(=O)[C@H](Cc1ccccc1)NC(=O)CNC(=O)[C@@H]1CCCN1C(=O)[C@@H]1CCCN1C(=O)[C@@H](N)CCCN=C(N)N)C(=O)O [Bradykinin, reference compound] (H-RPPGFSPFR-OH)"
unit = "min"
reported_result = 5.29


Now let's try a different one.
Looking for the measured half-life of N=C(N)NCCC[C@H](NC(=O)N(Cc1ccccc1)NC(=O)[C@@H]1CCCN1C(=O)[C@H](CO)NC(=O)N(Cc1ccccc1)NC(=O)CNC(=O)[C@@H]1CCCN1C(=O)[C@@H]1CCCN1C(=O)[C@@H](N)CCCNC(=N)N)C(=O)O [Compound 71, RPPGazaF^5SPazaF^8R] (H-RPPG[azaPhe]SP[azaPhe]R-OH; N-terminus and C-terminus assumed) , can you help?
106

###

study.target: HMGB1/MD-2 binding (Homo sapiens)
Sequence (Q9Y6Y9 17-160 limits assumed): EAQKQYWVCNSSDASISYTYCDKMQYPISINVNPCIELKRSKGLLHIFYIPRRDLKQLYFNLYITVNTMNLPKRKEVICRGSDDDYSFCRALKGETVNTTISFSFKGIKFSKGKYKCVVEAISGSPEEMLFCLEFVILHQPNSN
test.details: SPR HMGB1/MD-2 binding inhibition assay
measurement.context: immobilized disulfide HMGB1, MD-2 0.25 µM
measured.property: IC50 (nM)

[[record]]
smi = "NC(=O)[C@H](CCC(=O)O)NC(=O)[C@H](CO)NC(=O)[C@H](CO)NC(=O)N(N)Cc1ccccc1"
measured_property = "IC50"
reported_result = 249

[[record]]
smi = "NC(=O)N(CCC(=O)O)NC(=O)[C@H](CO)NC(=O)[C@H](CO)NC(=O)[C@@H](N)Cc1ccccc1"
measured_property = "IC50"
reported_result = 397

[[record]]
smi = "NC(=O)CCN(NC(=O)[C@H](CO)NC(=O)[C@H](CO)NC(=O)N(N)Cc1ccccc1)C(N)=O"
measured_property = "IC50"
reported_result = 83

[[record]]
smi = "NC(=O)CC[C@H](NC(=O)[C@H](CO)NC(=O)[C@H](CO)NC(=O)N(N)Cc1ccccc1)C(=O)O"
measured_property = "IC50"
reported_result = 159

[[record]]
smi = "NC(=O)CC[C@H](NC(=O)[C@H](CO)NC(=O)[C@H](CO)NC(=O)N(N)Cc1ccccc1)C(N)=O"
measured_property = "IC50"
reported_result = 349

[[record]]
smi = "NN(Cc1ccccc1)C(=O)N[C@@H](CO)C(=O)N[C@@H](CO)C(=O)N[C@@H](CCC(=O)O)C(=O)O"
measured_property = "IC50"
reported_result = 127

[[record]]
smi = "NC(=O)CCN(NC(=O)[C@H](CO)NC(=O)[C@H](CO)NC(=O)[C@@H](N)Cc1ccccc1)C(N)=O"
measured_property = "IC50"
reported_result = 423


###

test.details: in vitro
measurement.context: male, C57BL/6J, mouse, blood
Peptide text beside a SMILES is read from it. * marks the point of attachment. X1 = N=C(N)NCCCN(N)C(=O)*
# reported half-life; entries follow
Dear colleague, please return just the value in min, with no unit written.

[[record]]
compound = "N=C(N)NCCC[C@H](N)C(=O)N1CCC[C@H]1C(=O)N1CCC[C@H]1C(=O)NCC(=O)N[C@@H](Cc1ccccc1)C(=O)N[C@@H](CO)C(=O)N1CCC[C@H]1C(=O)N[C@@H](Cc1ccccc1)C(=O)NN(CCCNC(=N)N)C(=O)O"
reported_result = 42.6


Now let's try a different one.
Looking for the measured half-life of N=C(N)NCCC[C@H](NC(=O)[C@H](Cc1ccccc1)NC(=O)[C@@H]1CCCN1C(=O)[C@H](CO)NC(=O)[C@H](Cc1ccccc1)NC(=O)CNC(=O)[C@@H]1CCCN1C(=O)[C@@H]1CCCN1C(=O)N(N)CCCNC(=N)N)C(=O)O [Compound 62] (X1-PPGFSPFR-OH) , can you help?
2.46

###

test.details: in vitro
measurement.context: male, C57BL/6J, mouse, blood
measured.property: half-life

// solved cases for half-life follow
[[record]]
smi = "NC(=O)CC[C@H](NC(=O)[C@H](CO)NC(=O)[C@H](CO)NC(=O)N(N)Cc1ccccc1)C(N)=O"
reported_result = "> 2 h"

[[record]]
smi = "NC(=O)N(CCC(=O)O)NC(=O)[C@H](CO)NC(=O)[C@H](CO)NC(=O)N(N)Cc1ccccc1"
reported_result = "> 2 h"


Now let's try a different one.
Looking for the measured half-life of `NN(Cc1ccccc1)C(=O)N[C@@H](CO)C(=O)N[C@@H](CO)C(=O)N[C@@H](CCC(=O)O)C(=O)O` , can you help?
> 2 h

The reported numbers originate from paper PMC9705435.
